Test: In vivo pharmacokinetics in dog
Design: species or system male Beagle dogs
Details: male, Beagle, plasma, IV 1.0 mg/kg, 24 h, mean
Quantity Kind: concentration at 24 h (ng/mL)
The response must be a number in ng/mL with no trailing unit.

The compound listed as Cc1c(C(=O)Nc2ccc3c(c2)B(O)OC3)nnn1-c1ccccn1 [Compound 23] has a reported concentration at 24 h of 0.9

###

Assay: In vivo pharmacokinetics in dog
Set-up: species or system male Beagle dogs
Settings: male, Beagle, plasma, PO 5 mg/kg, 1 h, mean
Quantity Kind: concentration at 1 h

Just so you know, measured concentration at 1 h for `Cc1c(C(=O)Nc2ccc3c(c2)B(O)OC3)nnn1-c1ccccn1` came out at 814 ng/mL

###

Experiment: Thermodynamic solubility
Type: physicochemical
Details: FeSSIF buffer pH 5.0, read-out: FeSSIF solubility
Quantity Kind: solubility at 24 h (µg/mL)
Value expressed in µg/mL; do not type the unit.

The compound identified as `Cc1c(C(=O)Nc2ccc3c(c2)B(O)OC3)nnn1-c1ccccn1` registered its solubility at 24 h at 6.3

###

Tested on: MDR1
Assay: in vitro
Assay type: in vitro ADME
Settings: dog, MDCK-MDR1, pH 7.4
Quantity Kind: efflux ratio at 2.5 h, 2 µM
// keep it numeric: no unit symbol after the value

Summary line: `Cc1c(C(=O)Nc2ccc3c(c2)B(O)OC3)nnn1-c1ccccn1` , MDR1, reported efflux ratio at 2.5 h, 2 µM = 0.7

###

Assay: In vivo pharmacokinetics in rat
Set-up: species or system male Sprague-Dawley rats
Conditions: male, Sprague-Dawley, rat, plasma; PO 10.4 mg/kg; mean of R4-R6; read-out: MRT0-last
Description: DNDI-6148 was formulated in 2% ethanol, 1 mol equiv NaOH, dextrose (5% solution), and administrated to male Sprague-Dawley rats, either i.v. after filtration and pH adjustment (at 2 mg/kg), or p.o. as a homogenous suspension (at 10 mg/kg). […] PK parameters were calculated using WinNonlin software (version 6.21 and 6.3).
Quantity Kind: MRT last
Answers without a unit are incomplete; give the number and then its unit.

For record Cc1c(C(=O)Nc2ccc3c(c2)B(O)OC3)nnn1-c1ccccn1 [Compound 23] the listed MRT last is 4.15 h

###

Experiment: Hepatocyte stability, rat
Type: in vitro ADME
Conditions: Sprague-Dawley, cryopreserved rat hepatocytes
Quantity Kind: hepatocyte CLint at 1 μM (µL/min/1e6 cells)
Give the number; µL/min/1e6 cells is assumed, so skip it.

Quick note, hepatocyte CLint at 1 μM for `Cc1c(C(=O)Nc2ccc3c(c2)B(O)OC3)nnn1-c1ccccn1` landed at 0.7

###

System: L. infantum
Assay: L. infantum hamster model of VL
Format: in vivo
Conditions: 50 mg/kg BID p.o. for 5 days
Experimental: L. infantum (MHOM/MA/67/ITMAP263) and L. donovani (MHOM/ET/67/L82) were maintained in the golden (Syrian) hamster (Mesocricetus auratus). […] The spleen parasite burden was assessed using the Stauber technique.[25] […] Female golden hamsters were randomly allocated to experimental groups of six animals each, based on body weight. […] The study evaluated the following parameters. • 1. […] Parasite burden: amastigote burdens in each target organ (liver, spleen, and bone marrow) were determined at Day 35. […]
Measured reduction in parasite burden, bone marrow, 5 days values are reported for all entries that follow.
The reply should contain only the number, in %.

Below are worked cases with known answers.
Per the reported L. infantum data, Cc1c(C(=O)Nc2ccc3c(c2)B(O)OC3)nnn1-c1ccccn1 [Compound 23] has reduction in parasite burden, bone marrow, 5 days of 99.0

Noted reduction in parasite burden, bone marrow, 5 days for Cc1c(C(=O)Nc2ccc3c(c2)B(O)OC3)cnn1-c1ccccn1 [Compound 16] , tested on L. infantum: 95.1

Others:
reduction in parasite burden, bone marrow, 5 days value, target or system L. infantum, for O=C(Nc1ccc2c(c1)B(O)OC2)c1nnc(-c2ccccn2)o1 [Compound 31] : 99.7

Log: L. infantum, compound O=C(Nc1ccc2c(c1)B(O)OC2)c1cn(CC(F)(F)F)nc1C(F)(F)F [Compound 5] , reduction in parasite burden, bone marrow, 5 days = 98.0

Measured on L. infantum, Cc1c(-c2ccccn2)coc1C(=O)Nc1ccc2c(c1)B(O)OC2 [Compound 28] has a documented reduction in parasite burden, bone marrow, 5 days of 99.1
